# tgt: full length human TREX1 (Homo sapiens)
# Construct: N-terminally His-Tev tagged full length human TREX1; His-Tev (His tag with TEV protease site) (N)
# Sequence (Q9NSU2 whole entry): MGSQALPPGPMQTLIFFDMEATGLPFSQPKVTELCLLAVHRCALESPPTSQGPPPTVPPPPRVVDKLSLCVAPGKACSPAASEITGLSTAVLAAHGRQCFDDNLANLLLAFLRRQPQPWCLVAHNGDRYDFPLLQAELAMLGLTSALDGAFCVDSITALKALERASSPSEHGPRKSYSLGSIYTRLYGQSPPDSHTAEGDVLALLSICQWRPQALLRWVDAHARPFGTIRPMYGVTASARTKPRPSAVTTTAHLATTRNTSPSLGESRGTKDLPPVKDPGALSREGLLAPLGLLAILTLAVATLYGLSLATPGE
# protocol: TREX1 Biochemical Assay (fluorescence assay, degradation of dsDNA substrate)
# measurement_setup: 150 pM TREX1, 60 nM dsDNA substrate, 25 minutes at room temperature; read-out: hTREX1 EC50
property: EC50

Illustrative cases are given below, each with its answer.
• O=C(O)CC[C@H](c1ccccc1Cl)N(Cc1cccnc1)C(=O)c1cc(F)cc(F)c1 [Compound 245] = 1 to 10 µM
• O=C(c1ccc(Cl)cc1O)N(Cc1cccnc1)Cc1cc(Cl)cc(Cl)c1 [Compound 45] = > 10 µM
• O=C(O)c1ccc(CN(Cc2ccc3ncccc3c2Cl)C(=O)c2cc(F)cc(F)c2)cn1 [Compound 191] = < 0.1 µM
• COC(=O)C[C@H](c1ccc(Cl)cc1Cl)N(Cc1cccnc1)C(=O)c1cc(F)cc(F)c1 [Compound 216] = 1 to 10 µM
• O=C(c1cccc(F)c1)N(Cc1cccnc1)Cc1ccc(Cl)cc1Cl [Compound 11] = 1 to 10 µM

// CC(C)[C@@H](c1ccc(Cl)cc1Cl)N(Cc1cccnc1)C(=O)c1cccc(F)c1 (single isomer, unassigned) [Compound 160] : EC50 value = 1 to 10 µM

Short answer for O=C(c1cc(F)cc(F)c1)N(Cc1ccc(-c2cc(C(F)(F)F)n[nH]2)nc1)Cc1ccccc1Cl [Compound 223] : EC50 was > 10 µM
